Data origin: PubChem BioAssay (NCI)

Give growth for every item shown.
- Test system: SNB-75 CNS
- procedureSummary: NCI-60 one-dose screen, 48 h (100 = growth as untreated, 0 = no growth, -100 = all killed)
- conditionContext: 10 µM unless noted
Compounds without any hit were thinned out: in the full panel of roughly 83,000, 20% have a hit. The source made the active and inactive calls. Rule for the calls: active = growth percent below 10; inactive = the rest.

Prompt line: For the compound shown here, `CCSc1nc2scc(C)c2c(=O)[nH]1` , give the reported growth.
Response line: 90.2% (inactive)

Prompt line: Subsequent entry: `N#C/C(=C\c1c(-c2ccccc2)[nH]c2ccccc12)C(N)=O`
Response line: 32.5% (inactive)

Prompt line: Same read-out for C[PH+](c1nc2ccccc2nc1[PH+](C)C(C)(C)C)C(C)(C)C.C[PH+](c1nc2ccccc2nc1[PH+](C)C(C)(C)C)C(C)(C)C.[Au+].[Cl-] (stereo not given) ?
Response line: -98.4% (active)

Prompt line: Follow-up item: `Nc1cc(C(=O)NC[C@H]2CN(c3ccc(N4CCC(C(=O)O)CC4)cc3)C(=O)O2)ccc1Cl`
Response line: 84.8% (inactive)

Prompt line: Now the compound `COCCn1cc(-c2csc(-c3cn(C)c4ccc(Br)cc34)n2)c2cccnc21`
Response line: 75.6% (inactive)

---

- Tested on: SK-MEL-2 melanoma
- procedureSummary: NCI-60 one-dose screen, 48 h (100 = growth as untreated, 0 = no growth, -100 = all killed)
- conditionContext: 10 µM unless noted
About 83,000 compounds went through this panel and 20% of them were active in at least one assay; those are over-represented in the sample as a whole.
Please use rule met whenever growth is not below 70%, and rule not met whenever it is.

Prompt line: Hi, just wondering whether Nc1c(C(=O)Nc2ccncc2)sc2nc3c(cc12)C(O)CCC3 (centres undefined) shows growth of 70% or higher.
Response line: rule met

Prompt line: Same question for `COCCn1cc(-c2nc(-c3cc4cccnc4[nH]3)cs2)c2cc(OC)ccc21` please.
Response line: rule not met

Prompt line: Do the same for CCN1C(=O)N(CC)C2C1NN=c1s/c(=C\c3ccccc3F)c(=O)n12 (centres undefined) please
Response line: rule not met

Prompt line: Same read-out for N#CC1=C(c2ccccc2)Nc2c(c(-c3ccc(Cl)cc3)nn2-c2ccccc2)C12C(=O)Nc1ccc(Cl)cc12 (centres undefined) ?
Response line: rule met

Prompt line: Can you check `OCCn1cc(-c2nc(-c3c[nH]c4ncccc34)cs2)c2cc(F)ccc21` next?
Response line: rule not met

Prompt line: // same read-out, input: `N#Cc1nc(-c2ccc(F)cc2)oc1S(=O)(=O)N1CCCCC1`
Response line: rule met

Prompt line: Now the compound `N=C(N)c1ccc(-c2ccc(-c3ccc(Cl)c(Cl)c3)s2)nc1`
Response line: rule met

Prompt line: Then `CSc1nc2ccccc2cc1/C=C1/C=C(c2ccccc2)NC1=O` ?
Response line: rule met

Prompt line: Lookup `C#CCOC(=O)/C=C/c1cn(-c2ccccc2)nc1-c1ccc(OC)cc1`
Response line: rule met

---

Task for the reader: assign each of the following compounds its reported growth.
- Test system: PC-3 prostate
- procedureSummary: NCI-60 one-dose screen, 48 h (100 = growth as untreated, 0 = no growth, -100 = all killed)
- conditionContext: 10 µM unless noted
This is part of a sample that, as a whole, favours compounds with a hit. Of some 83,000 tested, about 20% had one in any assay. Active and inactive are the calls of the source. The calls were made as follows: active = growth percent below 10; inactive = the rest.

Prompt line: Please look up its growth: `CN(C)c1ccc(C(=O)OCCCCCCl)cc1`
Response line: 87.1% (inactive)

Prompt line: Continue with N#CC1=C(c2ccccc2)Nc2c(c(-c3ccc(Cl)cc3)nn2-c2ccccc2)C12C(=O)Nc1ccc(Cl)cc12 (stereo not given)
Response line: 51% (inactive)

Prompt line: Proceed to `Cn1c(=O)cc2c3c(c(NCCCO)ccc31)C(=O)c1ccccc1-2`
Response line: 45.2% (inactive)

Prompt line: Lookup `O=C(O)CCCN1C(=O)/C(=C/c2cn(-c3ccccc3)nc2-c2ccc([N+](=O)[O-])cc2)SC1=S`
Response line: 56.4% (inactive)

Prompt line: Repeat for the following compound: `COc1ccc(C(C)=O)cc1S(=O)(=O)Nc1c(N)nc(SC)[nH]c1=O`
Response line: 104% (inactive)

Prompt line: // repeat for `CN(C)c1ccc(-c2c(C#N)c(N)nn2C(=O)c2ccc(NC(=O)c3ccccn3)cc2)cc1` and report
Response line: 77.4% (inactive)

Prompt line: Also, C=C(C)[C@@H]1CC[C@]2(C(=O)O)CC[C@]3(C)[C@H](CC[C@@H]4[C@@]5(C)CCC(NC(=O)c6cccc(OC(C)=O)c6OC(C)=O)C(C)(C)[C@@H]5CC[C@]43C)[C@@H]12 (stereo not given in full) please.
Response line: 17.6% (inactive)

Prompt line: Query CCn1cc(C(=O)O)c(=O)c2cc(F)c(N3CCN(CC(=O)Nc4ccc(S(=O)(=O)Nc5nccc(C)n5)cc4)C(C)C3)c(F)c21 (stereo not given) next
Response line: 98% (inactive)

Prompt line: Request: `NC(=O)C(=O)c1ccccc1NC=O`
Response line: 90.1% (inactive)

Prompt line: Same for `CC(=O)Oc1ccc(C)cc1C`
Response line: 97% (inactive)

---

- Test system: OVCAR-4 ovarian
- procedureSummary: NCI-60 one-dose screen, 48 h
- conditionContext: 10 µM unless noted
This is part of a sample that, as a whole, favours compounds with a hit. Of some 83,000 tested, about 20% had one in any assay. Calls of active or inactive are those of the source. Rule for the calls: active = growth percent below 10; inactive = the rest.
Outcome (select one): active, inactive

Prompt line: I would be grateful if you could indicate the recorded call for `O=C1Nc2ccccc2/C1=C/c1cccn1CCCCn1c2ccccc2c(=O)c2ccccc21` .
Response line: inactive

Prompt line: For Nc1ncnc2c1C(c1ccc(Br)cc1)c1sc3c(F)cccc3c1O2 (configuration not stated) then?
Response line: inactive

Prompt line: Also `COc1ccc(C(=O)Nc2cccc(-c3cc(=O)c4c(OC)c(OC)c(OC)cc4o3)c2)cc1` , if possible.
Response line: inactive

Prompt line: // next record N#CC1=C(N)Oc2c(ccc3ccccc23)C1c1ccccc1 (configuration not stated)
Response line: inactive

Prompt line: Repeat for the following molecule: `COc1cc(-c2cncn2-c2ccc(-c3nc4ccc(F)cc4s3)cc2)ccc1F`
Response line: inactive

Prompt line: Now consider `COc1ccc(/C=C/C(=O)c2cccc(OCCCCOc3cccc(C(=O)/C=C/c4ccc(OC)c(OC)c4)c3)c2)cc1OC` .
Response line: inactive

Prompt line: Here is the next molecule: `S=c1sc2c(Cl)nc(-c3cccnc3)nc2n1-c1ccccc1`
Response line: inactive

Prompt line: Entry `CCN(CC)Cc1cc(C=C2C(=O)NC(=S)NC2=O)cc(OC)c1O` please
Response line: inactive

Prompt line: Same lookup for `N#Cc1nc(-c2ccc(F)cc2)oc1S(=O)(=O)N1CCCCC1` , please.
Response line: inactive

Prompt line: Please give the result for `Cc1ccc(-c2nc(N3CCCNCC3)c3oc(-c4ccccc4)nc3n2)cc1` too.
Response line: active

Prompt line: Next record, please: `Cc1ccc(NC(=O)c2sc3nc(C)c(Br)c(C)c3c2N)cc1`
Response line: inactive

Prompt line: Item: `COc1ccc(-c2nc3cc(C(=O)NCc4ccccc4)ccc3n2C2CCCCC2)cc1`
Response line: inactive

Prompt line: What about `CC(C)Cn1cnc2c(=O)[nH]c(N)nc21` ?
Response line: inactive

Prompt line: Entry `COC1=CC(c2ccc[nH]2)=N/C1=C\c1[nH]c(C)c(C)c1CCC(=O)OCc1ccccc1` please
Response line: active

Prompt line: Try COC(=O)C1Cc2ccccc2CN1C(=O)c1ccc2c(c1)Cc1ccccc1-2 (configuration not stated) next.
Response line: inactive

Prompt line: Do the same for `O=C(NNC(=O)c1ccc(NC(=O)c2ccccn2)cc1)Nc1ccc([N+](=O)[O-])cc1` please
Response line: inactive

Prompt line: // query: `COc1ccc(Nc2nc(-c3cc(O)c(C)c(C)c3O)cs2)cc1`
Response line: inactive

---

- Tested on: NCI-H226 lung
- procedureSummary: NCI-60 one-dose screen, 48 h (100 = growth as untreated, 0 = no growth, -100 = all killed)
- conditionContext: 10 µM unless noted
About 83,000 compounds went through this panel and 20% of them were active in at least one assay; those are over-represented in the sample as a whole. Calls of active or inactive are those of the source. The calls were made as follows: active = growth percent below 10; inactive = the rest.
assayMetric: growth

Prompt line: Please give the measured growth for this molecule: `O=S(=O)(NCCCNc1nccc(-c2c(-c3ccc(F)c(O)c3)nc3sccn23)n1)c1ccccc1`
Response line: 97.7% (inactive)

Prompt line: Next molecule up: COC(=O)Nc1nc2ccc(S(=O)c3ccccc3)cc2[nH]1 (stereo unspecified)
Response line: 92.9% (inactive)

Prompt line: # iterate: `Ic1ccc(OCCCCn2ccnc2)cc1`
Response line: 80.5% (inactive)

Prompt line: Same read-out for `CCOC(=O)C#Cc1c(C(=O)OCC)nnn1Cc1ccc([N+](=O)[O-])cc1` ?
Response line: 70.4% (inactive)

Prompt line: Cool, now `O=C(N/N=C/c1ccc(Cl)cc1)c1[nH]c2ccc(Cl)cc2c1-c1ccccc1`
Response line: 10.9% (inactive)

Prompt line: Moving on to `CCC(=C(c1ccc(OCCN2CCCCC2)cc1)c1ccc(OCCN2CCCCC2)cc1)c1ccc(Cl)cc1`
Response line: -66.4% (active)

Prompt line: What do we get for O=C1NC(=O)C(Cc2ccc(OCc3ccc(-c4ccc(Cl)cc4Cl)cc3)cc2)S1 (stereo unspecified) ?
Response line: 74.5% (inactive)

Prompt line: Next entry: `Cc1cccc(CNc2c3ccccc3nc3ccccc23)c1`
Response line: 40.6% (inactive)

Prompt line: Repeat for the following molecule: `COc1cc(OC)c(NC(=O)c2cc3ccccc3cc2O)cc1Cl`
Response line: 77% (inactive)

Prompt line: `O=[N+]([O-])c1cccc(-c2nc3cc4nc5ccccc5[nH]c4cc3n2)c1` ?
Response line: 105% (inactive)

Prompt line: Subsequent entry: `COc1ccc(-c2ccc(=O)oc2-c2cc(OC)c(OC)c(OC)c2)cc1O`
Response line: 42.7% (inactive)
